# Assay Target: Steryl-sulfatase (Homo sapiens)
# Sequence (P08842 whole entry): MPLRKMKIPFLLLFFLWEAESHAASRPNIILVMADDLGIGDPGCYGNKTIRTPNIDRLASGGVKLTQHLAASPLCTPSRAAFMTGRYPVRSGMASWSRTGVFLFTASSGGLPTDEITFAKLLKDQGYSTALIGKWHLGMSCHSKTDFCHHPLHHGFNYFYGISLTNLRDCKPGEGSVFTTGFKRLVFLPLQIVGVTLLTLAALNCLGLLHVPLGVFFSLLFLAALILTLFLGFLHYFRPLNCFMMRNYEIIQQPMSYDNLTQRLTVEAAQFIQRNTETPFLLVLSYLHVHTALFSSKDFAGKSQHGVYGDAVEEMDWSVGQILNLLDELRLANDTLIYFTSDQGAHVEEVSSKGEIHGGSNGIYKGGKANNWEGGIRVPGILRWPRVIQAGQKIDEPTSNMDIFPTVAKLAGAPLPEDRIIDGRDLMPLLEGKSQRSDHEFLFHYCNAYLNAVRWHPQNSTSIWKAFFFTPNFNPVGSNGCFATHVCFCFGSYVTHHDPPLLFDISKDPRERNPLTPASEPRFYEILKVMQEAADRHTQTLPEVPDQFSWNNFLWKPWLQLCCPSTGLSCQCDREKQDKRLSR
# Protocol: Irreversible inhibition of STS in human T47D cells using [3H]E1S as substrate measured after 24 hrs by HPLC analysis
# Type: cell-based
Endpoint: pIC50
Formally, pIC50 is defined as -log10 of the concentration c, with c in mol/L.

- Cc1ccccc1N(C)C(=O)c1csc(-c2ccc(OS(N)(=O)=O)cc2)n1: 7.22
- Cc1ccccc1N(C)C(=O)c1ccc(-c2ccc(OS(N)(=O)=O)cc2F)o1: 7.80
- Cc1ccccc1N(C)C(=O)c1ccc(-c2ccc(OS(N)(=O)=O)c(Cl)c2)o1: 7.57

Reading of pIC50 for Cc1ccccc1N(C)C(=O)c1coc(-c2ccc(OS(N)(=O)=O)cc2)n1 with Steryl-sulfatase (Homo sapiens): 7.17
